Can you tell me toxicity for the items I'm about to list?
Assay: autophagy modulators in MEF cells, primary screen, imaging, high-content, MEF GFP-LC3 (AID 463193);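 on toxicity: cell loss after 18 h compound exposure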
Conditions: MEF GFP-LC3 puncta imaging, at 10 µM; measured here: cell loss, nuclei count
Screen size: about 190,000 compounds; about 1,900 (1%) were called active. Shown is part of a subset that was picked to be rich in actives.
Write down the numeric answer in % and omit the unit.

Inquiry: Answer with reported toxicity of CCN1CCN(C(=O)c2ccc(CN(c3ccc(C)c(C)c3)S(C)(=O)=O)cc2)CC1
Reply text: -26.7

Inquiry: Answer with reported toxicity of O=C(OCC1O[C@@H](OC(=O)c2cc(O)c(O)c(O)c2)[C@@H](OC(=O)c2cc(O)c(O)c(O)c2)[C@@H](OC(=O)c2cc(O)c(O)c(O)c2)[C@@H]1OC(=O)c1cc(O)c(O)c(O)c1)c1cc(O)c(O)c(O)c1 (some centres undefined)
Reply text: -40.5

Inquiry: Answer with reported toxicity of COc1ccc(CN2CN(C3CCCC3)CSC2=S)cc1
Reply text: -8.41

Inquiry: Answer with reported toxicity of COc1ccc(C(=O)OCC(=O)NCC2CCCO2)cc1[N+](=O)[O-] (centres undefined)
Reply text: 1.61

Inquiry: Answer with reported toxicity of NC(=O)c1ccc(CN2CCC(Cc3ccccc3)CC2)cc1
Reply text: 31.8

Inquiry: Answer with reported toxicity of CCc1cccc(NC(=O)CCC(=O)O)c1
Reply text: 8.61

Inquiry: Answer with reported toxicity of COc1ccc(-c2[nH]ncc2CN(C)Cc2cccnc2)c(F)c1
Reply text: 15.9

Inquiry: Answer with reported toxicity of Cn1c(C(=O)NCCCN2CCN(c3cccc(Cl)c3)CC2)cc2c(=O)n(C)c3ccccc3c21
Reply text: 2.89

Inquiry: Answer with reported toxicity of Cc1ccccc1OCC(=O)Nc1nc(C)c(C(=O)N(C)C)s1
Reply text: -9.79

---

Can you tell me % cells with GFP-LC3 spots for the items I'm about to list?
Experiment: autophagy modulators in MEF cells, primary screen, imaging, high-content, MEF GFP-LC3 (AID 463193);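 on % cells with GFP-LC3 spots: spot-positive cell cutoff set from DMSO-treated cells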
Settings: MEF GFP-LC3 puncta imaging, at 10 µM; stronger effect = higher value
In all, about 190,000 compounds went through this assay and about 1,900 (1%) were called active. The entries come from a sample that favours actives as a whole.
Write down the numeric answer in % and omit the unit.

Inquiry: Answer with reported % cells with GFP-LC3 spots of CCC(C)NC(=O)/C=C/c1ccc(S(=O)(=O)NCc2ccco2)cc1 (stereo unspecified)
Reply text: 13.9

Inquiry: Answer with reported % cells with GFP-LC3 spots of COc1ccc(CC(=O)Nc2ccc(C(=O)NC(C)(C)C)cc2)cc1
Reply text: 6.06

Inquiry: Answer with reported % cells with GFP-LC3 spots of COc1ccc(C2CC(c3ccc(Cl)cc3Cl)Nc3nc(N)nn32)cc1OC (stereo unspecified)
Reply text: 14.3

Inquiry: Answer with reported % cells with GFP-LC3 spots of CC1Cc2ccccc2N1C1=CC(=O)CC(C)(C)C1 (stereo unspecified)
Reply text: 2.88

Inquiry: Answer with reported % cells with GFP-LC3 spots of O=C(Cc1c(F)cccc1Cl)Nc1ccc(-n2cnnn2)cc1
Reply text: 1.73

Inquiry: Answer with reported % cells with GFP-LC3 spots of COc1ccc(C2CC(c3ccc(C)cc3)Nc3nc(N)nn32)cc1 (stereo unspecified)
Reply text: 17.9

Inquiry: Answer with reported % cells with GFP-LC3 spots of CCO[C@@H]1OC(C(N)=O)=C[C@H](c2ccc(Br)cc2)[C@H]1CCCO
Reply text: 18.2

Inquiry: Answer with reported % cells with GFP-LC3 spots of Cc1ccc(NC2=C(Cl)C(=O)OC2OC(=O)c2ccccc2C)cc1 (stereo unspecified)
Reply text: 9.77

Inquiry: Answer with reported % cells with GFP-LC3 spots of Cn1c(-c2ccc(F)cc2)cnc1SCC(=O)NNC(=O)Cc1ccccc1
Reply text: 2.62

Inquiry: Answer with reported % cells with GFP-LC3 spots of COc1cccc2sc(NNC(=O)c3nc4ccccc4s3)nc12
Reply text: 8.59

Inquiry: Answer with reported % cells with GFP-LC3 spots of COc1ccc(CC(=O)Nc2ccc(-c3nnc(-c4ccc(C)cc4)o3)cc2)cc1
Reply text: 39.9

---

Can you tell me % cells with GFP-LC3 spots for the items I'm about to list?
Test: autophagy modulators in MEF cells, primary screen, imaging, high-content, MEF GFP-LC3 (AID 463193);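 on % cells with GFP-LC3 spots: spot-positive cell cutoff set from DMSO-treated cells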
Details: MEF GFP-LC3 puncta imaging, at 10 µM; stronger effect = higher value
In all, about 190,000 compounds went through this assay and about 1,900 (1%) were called active. This excerpt belongs to a sample that is enriched for actives.
Write down the numeric answer in % and omit the unit.

Inquiry: Answer with reported % cells with GFP-LC3 spots of Cc1ccc(S(=O)(=O)NCCN2CCOCC2)cc1C
Reply text: 1.8

Inquiry: Answer with reported % cells with GFP-LC3 spots of COc1ccc([C@H]2[C@H](C(C)=O)N3N=Cc4ccccc4C3C23C(=O)OC(C)(C)OC3=O)cc1 (stereo partly specified)
Reply text: 3.81

Inquiry: Answer with reported % cells with GFP-LC3 spots of CCc1ccc(NC(=O)Cn2nc(C)c([N+](=O)[O-])c2C)cc1
Reply text: 13.4

Inquiry: Answer with reported % cells with GFP-LC3 spots of CCOc1cc(NC(=O)c2ccccn2)c(OCC)cc1NC(=O)c1ccc(OC)cc1
Reply text: 2.17

Inquiry: Answer with reported % cells with GFP-LC3 spots of CCN(CC(=O)NCCc1ccccc1)S(=O)(=O)c1ccccc1
Reply text: 12

Inquiry: Answer with reported % cells with GFP-LC3 spots of CCOc1ccccc1NC(=O)c1cccnc1
Reply text: 1.43

Inquiry: Answer with reported % cells with GFP-LC3 spots of COc1cccc(C(=O)N2CCCC(CCC(=O)NCc3ccc(F)c(F)c3)C2)c1 (stereo unspecified)
Reply text: 3.38

Inquiry: Answer with reported % cells with GFP-LC3 spots of Cc1nc([N+](=O)[O-])c(NCCCO)n1Cc1ccccc1
Reply text: 43.4

Inquiry: Answer with reported % cells with GFP-LC3 spots of Cc1cc(C)c(S(=O)(=O)NCCCN2CCOCC2)cc1Br
Reply text: 19.8

Inquiry: Answer with reported % cells with GFP-LC3 spots of O=C(N/N=C/c1coc2ccccc2c1=O)c1cc2ccccc2o1
Reply text: 23.9

Inquiry: Answer with reported % cells with GFP-LC3 spots of Cc1nn(CC(=O)Nc2ccc(C#N)cc2)c(C)c1[N+](=O)[O-]
Reply text: 2.1

---

Assay: autophagy modulators in MEF cells, primary screen, imaging, high-content, MEF GFP-LC3 (AID 463193)
Conditions: MEF GFP-LC3 puncta imaging, at 10 µM
Out of some 190,000 compounds screened, about 1,900 (1%) were called active.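 The calls were made as follows: active = percentage of spot-positive cells more than 3 SD above its plate mean, without a fluorescence outlier flag or 80% toxicity; inconclusive = no clear call, values can overlap the other calls; inactive = the rest.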 The entries come from a sample that favours actives as a whole.
One label from this list, please: class 1 = active, class 0 = inactive

Inquiry: Lab log entry: CN(c1ccccc1)S(=O)(=O)c1ccc(Cl)c(C(=O)OCC(=O)N2CCOCC2)c1 — outcome as called in the assay?
Reply text: class 0

Inquiry: Lab log entry: CSc1ncnc2sc(C)c(C)c12 — outcome as called in the assay?
Reply text: class 0

Inquiry: Lab log entry: O=[N+]([O-])/C(N=Nc1ccccc1)=N\Nc1ccccc1 — outcome as called in the assay?
Reply text: class 0

Inquiry: Lab log entry: Cc1ccc(S(=O)(=O)C(C#N)c2nc3ccccc3nc2N2CCCC2)cc1C (configuration not stated) — outcome as called in the assay?
Reply text: class 0

Inquiry: Lab log entry: Cc1ccc(NC(=O)CN(C)Cc2ccc(F)cc2)c([N+](=O)[O-])c1 — outcome as called in the assay?
Reply text: class 0

Inquiry: Lab log entry: CCOC(=O)/C(C#N)=C/c1ccc(N2CCN(Cc3ccccc3)CC2)cc1 — outcome as called in the assay?
Reply text: class 0

Inquiry: Lab log entry: CN(C)C(=O)c1nc2ccc(Cl)cn2c1CN1CCN(c2ncccn2)CC1 — outcome as called in the assay?
Reply text: class 0

Inquiry: Lab log entry: CCCCn1c(N)c(N2CCOCC2)c(=O)n(CC(=O)NCCc2ccccc2)c1=O — outcome as called in the assay?
Reply text: class 0

Inquiry: Lab log entry: C/C(Cc1ccccc1)=N\NC(=O)CNC(=O)c1cccc(Br)c1 — outcome as called in the assay?
Reply text: class 0

Inquiry: Lab log entry: COc1ccc(OC)c(C(=O)c2ccc(C(=O)N3CCN(Cc4csc(C)n4)CC3)cc2)c1 — outcome as called in the assay?
Reply text: class 0

Inquiry: Lab log entry: Cc1ccc(NC(=O)c2oc(=O)c3ccccc3c2-c2ccccc2)c(C)c1 — outcome as called in the assay?
Reply text: class 0

Inquiry: Lab log entry: CN(C)/N=C/c1cc(Cl)cc([N+](=O)[O-])c1O — outcome as called in the assay?
Reply text: class 0

Inquiry: Lab log entry: COc1ccc(C(=O)Nc2ccc(F)cc2F)cc1 — outcome as called in the assay?
Reply text: class 0

Inquiry: Lab log entry: O=C(NC1CCCCC1)C1CCCN(S(=O)(=O)c2ccc(Br)s2)C1 (configuration not stated) — outcome as called in the assay?
Reply text: class 0

Inquiry: Lab log entry: CC1(C)CC(=O)c2ccc(O)cc2O1 — outcome as called in the assay?
Reply text: class 0

Inquiry: Lab log entry: O=C(OCC(=O)N1CCN(C(=O)c2ccco2)CC1)c1ccccc1Cc1ccccc1 — outcome as called in the assay?
Reply text: class 0

Inquiry: Lab log entry: CC(C)OC(=O)C(C#N)c1nc2ccccc2nc1N1CCN(Cc2ccccc2)CC1 (configuration not stated) — outcome as called in the assay?
Reply text: class 1

Inquiry: Lab log entry: COc1cccc(Cn2cnc3c([N+](=O)[O-])c(C)c(C)cc32)c1 — outcome as called in the assay?
Reply text: class 1

Inquiry: Lab log entry: Nc1nc(SCC(=O)N2CCN(S(=O)(=O)c3ccc(Cl)cc3)CC2)n[nH]1 — outcome as called in the assay?
Reply text: class 0

Inquiry: Lab log entry: CN(c1ccccc1)S(=O)(=O)c1cc(C(=O)OCC(=O)N2CCN(C(=O)c3ccco3)CC2)ccc1Cl — outcome as called in the assay?
Reply text: class 1

Inquiry: Lab log entry: COc1ccc(CN(C)Cc2nc3cc(OC)c(OC)cc3c(=O)[nH]2)c(OC)c1 — outcome as called in the assay?
Reply text: class 0

Inquiry: Lab log entry: S=C(NCc1cccnc1)Nc1ccc(Cl)cc1Cl — outcome as called in the assay?
Reply text: class 0
